Listed here: items and their measured growth AUC.
test system: Coprococcus comes; test: growth AUC relative to DMSO control (median of replicates) (fraction); higher = more growth (less inhibition), active = hit call of the paper; conditions: 20 µM; 24 h
Write the number on its own, no unit after it.

Below: 10 compounds and their reported growth AUC.
1) COc1ccc(/C(=C/C(=O)N2CCOCC2)c2ccc(Cl)cc2)cc1OC    0.985
2) CCCCCCCCCCCCC1=C(OC(C)=O)C(=O)c2ccccc2C1=O    0.863
3) CC1(C)CON(Cc2ccccc2Cl)C1=O    1.01
4) CCCN(CC1CC1)c1c([N+](=O)[O-])cc(C(F)(F)F)cc1[N+](=O)[O-]    0.995
5) O=P(OCCCl)(OCCCl)OCCCl    0.916
6) C[Si](Cn1cncn1)(c1ccc(F)cc1)c1ccc(F)cc1    0.412
7) CNC(=O)O/N=C/C(C)(C)S(C)(=O)=O    0.98
8) CN(C)C(CSS(=O)(=O)[O-])CSS(=O)(=O)O.[Na+]    0.987
9) CC(C)(C)[C@@H](O)[C@H](Oc1ccc(Cl)cc1)n1cncn1    0.974
10) CCOP(=S)(OCC)Oc1cc(Cl)c(SC)cc1Cl    1.02

Field growth AUC (system: Coprococcus comes) for entry "CNC(=O)CSP(=S)(OC)OC" = 1.01

###

system: Lactobacillus paracasei; test: growth AUC relative to DMSO control (median of replicates) (fraction); higher = more growth (less inhibition), active = hit call of the paper; settings: 20 µM; 24 h
Listed here: items and their measured growth AUC.
Write the number on its own, no unit after it.

Below: 2 compounds and their reported growth AUC.
1) O=[N+]([O-])c1ccccc1    0.994
2) N#CCNC(=O)c1cnccc1C(F)(F)F    0.974

Below: the item to evaluate.
Value of growth AUC reported for the compound CC(C)CC(C)c1sccc1NC(=O)c1cn(C)nc1C(F)(F)F (stereo not drawn) is 1.02

###

Listed here: items and their measured growth AUC.
test system: Fusobacterium nucleatum subsp. animalis; assay: growth AUC relative to DMSO control (median of replicates) (fraction); higher = more growth (less inhibition), active = hit call of the paper; settings: 20 µM; 24 h
Write the number on its own, no unit after it.

Below: 2 compounds and their reported growth AUC.
1) CCOC(=O)C(C)OC(=O)c1cc(Oc2ccc(C(F)(F)F)cc2Cl)ccc1[N+](=O)[O-] (configuration not stated)    0.999
2) CC(C)(C)C(O)/C(=C/c1ccc(Cl)cc1Cl)n1cncn1 (mixture of isomers)    1

Value of growth AUC reported for the compound CC[C@H]1CCCC(O[C@H]2CC[C@H](N(C)C)[C@@H](C)O2)[C@@H](C)C(=O)C2=C[C@@H]3[C@@H](C=C(C)[C@@H]4C[C@@H](O[C@@H]5O[C@@H](C)[C@H](OC)[C@@H](OC)[C@H]5OC)C[C@@H]34)[C@@H]2CC(=O)O1.CC[C@H]1CCCC(O[C@H]2CC[C@H](N(C)C)[C@@H](C)O2)[C@@H](C)C(=O)C2=C[C@@H]3[C@@H](C=C[C@@H]4C[C@@H](O[C@@H]5O[C@@H](C)[C@H](OC)[C@@H](OC)[C@H]5OC)C[C@@H]34)[C@@H]2CC(=O)O1 (some centres not stated) is 0.995

Value of growth AUC reported for the compound "CC(C)OC(=O)C(O)(c1ccc(Br)cc1)c1ccc(Br)cc1" is 1.01

Value of growth AUC reported for the compound CC1COC(Cn2cncn2)(c2ccc(Oc3ccc(Cl)cc3)cc2Cl)O1 (configuration not stated) is 0.983

Value of growth AUC reported for the compound "O=C(O)C(F)(F)C(F)(F)C(F)(F)C(F)(F)C(F)(F)C(F)(F)C(F)(F)F" is 1

Value of growth AUC reported for the compound "CC(C)N1C(=O)c2ccccc2NS1(=O)=O" is 1.01

###

tested on: Bacteroides caccae; test: growth AUC relative to DMSO control (median of replicates) (fraction); higher = more growth (less inhibition), active = hit call of the paper; conditions: 20 µM; 24 h;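 active = AUC reduced over 20% with Padj below 0.05 in at least 2 of 3 replicates; inactive = otherwise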
Classes to choose from: y for active, n for inactive

QUERY: Name the outcome recorded for "CO/N=C(/C(=O)OC)c1ccccc1COc1ccccc1C" in the assay.
RESULT: n

QUERY: Name the outcome recorded for "CCOC(=O)c1ccccc1S(=O)(=O)NC(=O)Nc1nc(Cl)cc(OC)n1" in the assay.
RESULT: n

QUERY: Name the outcome recorded for O=CNC(N1CCN(C(NC=O)C(Cl)(Cl)Cl)CC1)C(Cl)(Cl)Cl (centres undefined) in the assay.
RESULT: n

QUERY: Name the outcome recorded for "N#Cc1cc(Br)c(O)c(Br)c1" in the assay.
RESULT: n

QUERY: Name the outcome recorded for "CO/C=C(/C(=O)OC)c1ccccc1Oc1cc(Oc2ccccc2C#N)ncn1" in the assay.
RESULT: n

QUERY: Name the outcome recorded for "CS(=O)(=O)c1cc(C(F)(F)F)ccc1C(=O)c1cnoc1C1CC1" in the assay.
RESULT: n

QUERY: Name the outcome recorded for "Clc1ccc(Cl)c(Cl)c1Cl" in the assay.
RESULT: n

QUERY: Name the outcome recorded for Cc1cc(C(C#N)c2ccc(Cl)cc2)c(Cl)cc1NC(=O)c1cc(I)cc(I)c1O (centres undefined) in the assay.
RESULT: y

###

Listed here: items and their measured growth AUC.
test system: Eubacterium rectale; experiment: growth AUC relative to DMSO control (median of replicates) (fraction); higher = more growth (less inhibition), active = hit call of the paper; details: 20 µM; 24 h
Write the number on its own, no unit after it.

1. CC(C)(C)[C@@H](O)[C@H](Oc1ccc(Cl)cc1)n1cncn1    1.08
2. O=C(NC(=O)c1c(F)cccc1F)Nc1ccc(Oc2ccc(C(F)(F)F)cc2Cl)cc1F    0.994
3. CCCOCC(=Nc1ccc(Cl)cc1C(F)(F)F)n1ccnc1    0.382
4. CCOP(=O)(OCC)O/C(=C/Br)c1ccc(Cl)cc1Cl    1.04

Value of growth AUC reported for the compound "CON(C)C(=O)Nc1ccc(Cl)cc1" is 0.999

###

system: Bacteroides thetaiotaomicron; assay: growth AUC relative to DMSO control (median of replicates) (fraction); higher = more growth (less inhibition), active = hit call of the paper; settings: 20 µM; 24 h
testReadout: growth AUC
Write the number on its own, no unit after it.

1. c1ccc2c(c1)cc1ccc3cccc4ccc2c1c34    1
2. CC(C)(C)C(O)C(Oc1ccc(Cl)cc1)n1cncn1 (stereo not drawn)    0.986
3. O=S(=O)(c1ccc(O)cc1)c1ccc(O)cc1    0.996
4. Clc1cc(Cl)c(Cl)cc1Cl    0.982
5. CCC(=O)Nc1ccc(Cl)c(Cl)c1    0.988
6. CCO/N=C(\CC)C1=C(O)CC(c2c(C)cc(C)cc2C)CC1=O (stereo not drawn)    0.986
7. Cc1occc1C(=O)Nc1ccccc1    1.02
8. CCOP(=S)(OCC)Oc1ccc([N+](=O)[O-])cc1    0.972

Value of growth AUC reported for the compound CNC(=O)Oc1cccc2c1OC(C)(C)C2O (stereo not drawn) is 1.01

Value of growth AUC reported for the compound "COP(=S)(OC)SCN1C(=O)c2ccccc2C1=O" is 0.978

Value of growth AUC reported for the compound CC1(C)C(C(=O)OC(C#N)c2cccc(Oc3ccccc3)c2)C1(C)C (stereo not drawn) is 0.986

Value of growth AUC reported for the compound "CN=C=S" is 1

Value of growth AUC reported for the compound "CCCCN(CC)C(=O)SCCC" is 0.979

Value of growth AUC reported for the compound O=C(NC(=O)c1c(F)cccc1F)Nc1ccc(OC(F)(F)C(F)OC(F)(F)F)c(Cl)c1 (stereo not drawn) is 0.974

Value of growth AUC reported for the compound "CCCSC(=O)N(CCC)CCC" is 1.01

Value of growth AUC reported for the compound "CNC(=O)c1cc(C#N)cc(C)c1NC(=O)c1cc(Br)nn1-c1ncccc1Cl" is 0.982

Value of growth AUC reported for the compound "CCOP(=S)(OCC)SCSP(=S)(OCC)OCC" is 1.01

Value of growth AUC reported for the compound "O=c1[nH]c2c(c(=O)n1C1CCCCC1)CCC2" is 0.978

###

Listed here: items and their measured growth AUC.
test system: Lactobacillus gasseri; assay: growth AUC relative to DMSO control (median of replicates) (fraction); higher = more growth (less inhibition), active = hit call of the paper; conditions: 20 µM; 24 h
Write the number on its own, no unit after it.

Below: 2 compounds and their reported growth AUC.
1) CC1(C)[C@H](C(=O)O[C@H](C#N)c2cccc(Oc3ccccc3)c2)[C@@H]1C=C(Br)Br    0.926
2) O=C(O)COc1cc(Cl)c(Cl)cc1Cl    1.19

Below: the item to evaluate.
Field growth AUC (system: Lactobacillus gasseri) for entry "COc1nc(NC(C)C)nc(NC(C)C)n1" = 0.984
